Hello, the source for this data is paper PMC6222450, in case you need it.

# target.under.test: dopaminergic D2LR (Homo sapiens)
# Sequence (P14416 whole entry): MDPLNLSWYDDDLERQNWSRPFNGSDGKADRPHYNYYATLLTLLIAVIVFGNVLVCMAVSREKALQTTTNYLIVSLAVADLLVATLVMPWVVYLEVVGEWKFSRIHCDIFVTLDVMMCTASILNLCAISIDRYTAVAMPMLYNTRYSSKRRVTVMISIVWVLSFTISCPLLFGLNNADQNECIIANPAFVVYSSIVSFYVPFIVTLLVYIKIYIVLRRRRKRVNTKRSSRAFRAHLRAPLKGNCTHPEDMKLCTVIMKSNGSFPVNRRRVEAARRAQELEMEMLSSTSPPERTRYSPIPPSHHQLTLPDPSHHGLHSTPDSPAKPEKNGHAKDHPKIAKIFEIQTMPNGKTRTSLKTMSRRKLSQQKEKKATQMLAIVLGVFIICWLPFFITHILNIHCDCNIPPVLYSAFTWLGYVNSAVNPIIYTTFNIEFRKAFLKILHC
# assay.comment: Radioligand binding assay, D2LR, [3H]-Raclopride
# test.context: human D2L receptor stably expressed in HEK-293 cells; read-out: Ki D2 [3H]-Raclopride
measurement.kind: Ki

> print(dat)
                                    compound                 target.under.test    result
 1  CN1CCN(c2nc(N)nc(CN3C(=O)N(Cc4cccc(Cl)c4)C(C)(C)C3=O)n2)CC1 [Compound 10]  dopaminergic D2LR (Homo sapiens)   4.63 µM
 2  CN1CCN(c2nc(N)nc(CN3C(=O)N(Cc4ccccc4)C(C)(C)C3=O)n2)CC1 [Compound 9]  dopaminergic D2LR (Homo sapiens)   8.78 µM
 3  CN1CCN(c2nc(N)nc(CN3C(=O)NC(C)(c4ccc5ccccc5c4)C3=O)n2)CC1 (stereo not shown) [Compound 26]  dopaminergic D2LR (Homo sapiens)   4.25 µM
 4  CN1CCN(c2nc(N)nc(CN3C(=O)NC(C)(c4ccc(Cl)cc4Cl)C3=O)n2)CC1 (stereo not shown) [Compound 22]  dopaminergic D2LR (Homo sapiens)   15.1 µM
 5  CN1CCN(c2nc(N)nc(CN3C(=O)NC(C)(c4ccccc4)C3=O)n2)CC1 (stereo not shown) [Compound 19]  dopaminergic D2LR (Homo sapiens)     41 µM
 6  CN1CCN(c2nc(N)nc(CN3C(=O)N(Cc4ccc(Cl)cc4Cl)C(C)(C)C3=O)n2)CC1 [Compound 12]  dopaminergic D2LR (Homo sapiens)  0.681 µM
 7  CN1CCN(c2nc(N)nc(CN3C(=O)N(Cc4ccc(F)cc4)C(C)(C)C3=O)n2)CC1 [Compound 13]  dopaminergic D2LR (Homo sapiens)   6.56 µM
 8  COc1cccc(CN2C(=O)N(Cc3nc(N)nc(N4CCN(C)CC4)n3)C(=O)C2(C)C)c1 [Compound 16]  dopaminergic D2LR (Homo sapiens)   15.5 µM
 9  Cc1cccc(CN2C(=O)N(Cc3nc(N)nc(N4CCN(C)CC4)n3)C(=O)C2(C)C)c1 [Compound 17]  dopaminergic D2LR (Homo sapiens)   5.21 µM
10  CN1CCN(c2nc(N)nc(CN3C(=O)N(Cc4cc(Cl)ccc4Cl)C(C)(C)C3=O)n2)CC1 [Compound 11]  dopaminergic D2LR (Homo sapiens)   2.87 µM
11  CN1CCN(c2nc(N)nc(CN3C(=O)N(Cc4ccc(Cl)cc4)C(C)(C)C3=O)n2)CC1 [Compound 6]  dopaminergic D2LR (Homo sapiens)    4.1 µM
12  CN1CCN(c2nc(N)nc(CN3C(=O)N(Cc4cccc(Br)c4)C(C)(C)C3=O)n2)CC1 [Compound 15]  dopaminergic D2LR (Homo sapiens)   6.68 µM
13  CN1CCN(c2nc(N)nc(CN3C(=O)N(Cc4cccc(F)c4)C(C)(C)C3=O)n2)CC1 [Compound 14]  dopaminergic D2LR (Homo sapiens)   6.58 µM
14  Cc1ccc(C2(C)NC(=O)N(Cc3nc(N)nc(N4CCN(C)CC4)n3)C2=O)cc1 (stereo not shown) [Compound 24]  dopaminergic D2LR (Homo sapiens)   23.3 µM
15  CN1CCN(c2nc(N)nc(CN3C(=O)NC(C)(c4cccc5ccccc45)C3=O)n2)CC1 (stereo not shown) [Compound 25]  dopaminergic D2LR (Homo sapiens)   7.81 µM
16  CN1CCN(c2nc(N)nc(CN3C(=O)NC(C)(c4cc(Cl)ccc4Cl)C3=O)n2)CC1 (stereo not shown) [Compound 21]  dopaminergic D2LR (Homo sapiens)   11.5 µM

---

Recorded measurements of log10(Ki), one per entry
# target.under.test: 5-HT7bR (Homo sapiens, UniProt P34969)
# Sequence (P34969 1-432 limits assumed): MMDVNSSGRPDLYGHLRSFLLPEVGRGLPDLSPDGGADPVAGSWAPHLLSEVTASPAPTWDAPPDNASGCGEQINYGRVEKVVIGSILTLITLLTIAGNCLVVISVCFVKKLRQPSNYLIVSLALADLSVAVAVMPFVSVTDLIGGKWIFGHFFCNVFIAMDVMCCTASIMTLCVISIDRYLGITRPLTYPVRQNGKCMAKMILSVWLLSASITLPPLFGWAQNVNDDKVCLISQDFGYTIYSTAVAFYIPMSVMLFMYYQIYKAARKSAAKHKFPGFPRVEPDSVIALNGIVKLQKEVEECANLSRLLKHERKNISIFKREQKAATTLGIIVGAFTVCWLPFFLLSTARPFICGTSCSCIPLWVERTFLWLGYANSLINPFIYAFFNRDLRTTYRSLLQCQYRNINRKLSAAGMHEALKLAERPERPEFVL
measurement.kind: log10(Ki) (log10 of the value in nM)

> print(dat)
                                   compound  measurement.kind  result.number
1  CN1CCN(c2nc(N)nc(CN3C(=O)NC(C)(c4cc(Cl)ccc4Cl)C3=O)n2)CC1 (centres unmarked) [Compound 21]         log10(Ki)           3.19
2  CN1CCN(c2nc(N)nc(CN3C(=O)N(Cc4cccc(Br)c4)C(C)(C)C3=O)n2)CC1 [Compound 15]         log10(Ki)           2.76
3  CN1CCN(c2nc(N)nc(CN3C(=O)NC(C)(c4ccc(Cl)cc4)C3=O)n2)CC1 (centres unmarked) [Compound 7]         log10(Ki)           2.97
4  COc1cccc(CN2C(=O)N(Cc3nc(N)nc(N4CCN(C)CC4)n3)C(=O)C2(C)C)c1 [Compound 16]         log10(Ki)           3.56
5  CN1CCN(c2nc(N)nc(CN3C(=O)NC(C)(c4ccc(Cl)c(Cl)c4Cl)C3=O)n2)CC1 (centres unmarked) [Compound 23]         log10(Ki)           3.95
6  CN1CCN(c2nc(N)nc(CN3C(=O)N(Cc4ccc(F)cc4)C(C)(C)C3=O)n2)CC1 [Compound 13]         log10(Ki)           2.98
7  CN1CCN(c2nc(N)nc(CN3C(=O)NC(C)(c4ccccc4)C3=O)n2)CC1 (centres unmarked) [Compound 19]         log10(Ki)           3.04
8  CN1CCN(c2nc(N)nc(CN3C(=O)NC(C)(c4ccc(Cl)cc4Cl)C3=O)n2)CC1 (centres unmarked) [Compound 22]         log10(Ki)           4.00

---

Parameter: pKi. Scope: all listed entries.
# target.under.test: dopaminergic D2LR (Homo sapiens)
# assay.comment: Radioligand binding assay, D2LR, [3H]-Raclopride
# test.context: human D2L receptor stably expressed in HEK-293 cells; read-out: Ki D2 [3H]-Raclopride
pKi: −log10 of the molar value.
measurement.kind: pKi

> print(dat)
                                   compound  result.number
1  CN1CCN(c2nc(N)nc(CN3C(=O)NC(c4ccc(Cl)cc4)(c4ccc(Cl)cc4)C3=O)n2)CC1           5.16
2  CN1CCN(c2nc(N)nc(CN3C(=O)NC(C)(C)C3=O)n2)CC1           4.65
3  CN1CCN(c2nc(N)nc(CN3C(=O)NC(C)(c4ccc(Cl)cc4)C3=O)n2)CC1 (stereo not drawn)           4.51

---

# target.under.test: 5-HT2A (Homo sapiens, UniProt P28223)
# Sequence (P28223 whole entry): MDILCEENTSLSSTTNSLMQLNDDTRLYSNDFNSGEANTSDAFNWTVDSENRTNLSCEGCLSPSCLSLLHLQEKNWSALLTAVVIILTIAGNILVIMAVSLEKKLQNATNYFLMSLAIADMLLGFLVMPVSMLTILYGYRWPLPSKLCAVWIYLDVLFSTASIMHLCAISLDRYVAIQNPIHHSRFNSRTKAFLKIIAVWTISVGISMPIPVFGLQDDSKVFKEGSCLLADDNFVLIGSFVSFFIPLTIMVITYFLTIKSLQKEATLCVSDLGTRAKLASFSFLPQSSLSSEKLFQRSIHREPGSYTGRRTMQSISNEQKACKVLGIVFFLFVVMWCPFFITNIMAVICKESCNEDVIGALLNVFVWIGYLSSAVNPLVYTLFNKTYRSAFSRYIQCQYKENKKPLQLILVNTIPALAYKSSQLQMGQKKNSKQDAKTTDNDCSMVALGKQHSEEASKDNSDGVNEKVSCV
pKi: −log10 of the molar value.
measurement.kind: pKi

> print(dat)
                                    molecule  measurement.kind  result.number
 1  CN1CCN(c2nc(N)nc(CN3C(=O)N(Cc4cccc(Cl)c4)C(C)(C)C3=O)n2)CC1               pKi           6.48
 2  CN1CCN(c2nc(N)nc(CN3C(=O)NC(C)(c4ccc5ccccc5c4)C3=O)n2)CC1 (centres unmarked)               pKi           4.77
 3  CN1CCN(c2nc(N)nc(CN3C(=O)N(Cc4ccc(Cl)cc4Cl)C(C)(C)C3=O)n2)CC1               pKi           5.45
 4  COc1cccc(CN2C(=O)N(Cc3nc(N)nc(N4CCN(C)CC4)n3)C(=O)C2(C)C)c1               pKi           5.69
 5  CN1CCN(c2nc(N)nc(CN3C(=O)N(Cc4cccc(F)c4)C(C)(C)C3=O)n2)CC1               pKi           6.62
 6  CN1CCN(c2nc(N)nc(CN3C(=O)N(Cc4ccc5ccccc5c4)C(C)(C)C3=O)n2)CC1               pKi           5.72
 7  CN1CCN(c2nc(N)nc(CN3C(=O)N(Cc4ccc(F)cc4)C(C)(C)C3=O)n2)CC1               pKi           5.45
 8  CN1CCN(c2nc(N)nc(CN3C(=O)NC(C)(c4ccccc4)C3=O)n2)CC1 (centres unmarked)               pKi           4.92
 9  Cc1ccc(C2(C)NC(=O)N(Cc3nc(N)nc(N4CCN(C)CC4)n3)C2=O)cc1 (centres unmarked)               pKi           4.61
10  CN1CCN(c2nc(N)nc(CN3C(=O)N(Cc4ccccc4)C(C)(C)C3=O)n2)CC1               pKi           5.80
11  CN1CCN(c2nc(N)nc(CN3C(=O)N(Cc4cc(Cl)ccc4Cl)C(C)(C)C3=O)n2)CC1               pKi           6.09
12  CN1CCN(c2nc(N)nc(CN3C(=O)NC(C)(c4cc(Cl)ccc4Cl)C3=O)n2)CC1 (centres unmarked)               pKi           4.96
13  CN1CCN(c2nc(N)nc(CN3C(=O)N(Cc4cccc(Br)c4)C(C)(C)C3=O)n2)CC1               pKi           5.88
14  CN1CCN(c2nc(N)nc(CN3C(=O)NC(C)(c4cccc5ccccc45)C3=O)n2)CC1 (centres unmarked)               pKi           5.09
